- System Tested: Amine oxidase [flavin-containing] B (Homo sapiens, UniProt P27338)
- Sequence (P27338 whole entry): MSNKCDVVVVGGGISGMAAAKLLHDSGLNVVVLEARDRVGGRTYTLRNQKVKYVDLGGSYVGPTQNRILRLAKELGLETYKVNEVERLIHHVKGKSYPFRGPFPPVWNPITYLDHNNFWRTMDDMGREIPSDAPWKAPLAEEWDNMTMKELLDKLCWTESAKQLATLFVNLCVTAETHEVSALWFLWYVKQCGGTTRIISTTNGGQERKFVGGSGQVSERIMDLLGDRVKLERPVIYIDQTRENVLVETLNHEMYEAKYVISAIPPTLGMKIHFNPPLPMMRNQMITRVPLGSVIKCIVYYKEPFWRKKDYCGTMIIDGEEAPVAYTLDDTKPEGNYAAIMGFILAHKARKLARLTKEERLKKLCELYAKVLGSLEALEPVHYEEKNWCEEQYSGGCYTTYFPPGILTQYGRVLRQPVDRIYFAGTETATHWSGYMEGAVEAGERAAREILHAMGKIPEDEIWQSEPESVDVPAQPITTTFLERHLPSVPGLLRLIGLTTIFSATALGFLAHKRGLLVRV
- Experiment Summary: Inhibition of human recombinant MAO-B using p-tyramine as substrate assessed as production of H2O2 incubated for 15 mins prior to substrate addition measured after 20 mins by microplate fluorescence reader analysis
Provide the recorded IC50 for the entries that follow.
Write the figure, then the unit, nothing else.

// known answers, use as guide
[[record]]
compound = "O=C(CBr)N1N=C(c2ccc(F)cc2)CC1c1ccccc1O (configuration not stated)"
system_tested = "Amine oxidase [flavin-containing] B (Homo sapiens, UniProt P27338)"
reported = "52.9 µM"

[[record]]
compound = "Cc1ccc(C2=NN(C(=O)CN3CCCCC3)C(c3cc(Cl)ccc3O)C2)cc1 (configuration not stated)"
system_tested = "Amine oxidase [flavin-containing] B (Homo sapiens, UniProt P27338)"
reported = "56.2 µM"

[[record]]
compound = "O=C(CN1CCCCC1)N1N=C(c2ccc(Cl)cc2)CC1c1cc(Cl)ccc1O (configuration not stated)"
system_tested = "Amine oxidase [flavin-containing] B (Homo sapiens, UniProt P27338)"
reported = "44.1 µM"

[[record]]
compound = "CC1=NN(C(=O)CN2CCN(CCO)CC2)C(c2cc(Br)cc(Br)c2O)C1 (configuration not stated)"
system_tested = "Amine oxidase [flavin-containing] B (Homo sapiens, UniProt P27338)"
reported = "42.3 µM"

[[record]]
compound = "CC1=NN(C(=O)CN2CCC(=O)CC2)C(c2cc(Br)cc(Br)c2O)C1 (configuration not stated)"
system_tested = "Amine oxidase [flavin-containing] B (Homo sapiens, UniProt P27338)"
reported = "58.9 µM"

[[record]]
compound = "COc1ccc(C2=NN(C(=O)CN3CCOCC3)C(c3cc(Cl)ccc3O)C2)cc1 (configuration not stated)"
system_tested = "Amine oxidase [flavin-containing] B (Homo sapiens, UniProt P27338)"
reported = "56.5 µM"

[[record]]
compound = "Cc1ccc(C2=NN(C(=O)Cn3ccnc3)C(c3cc(Cl)ccc3O)C2)cc1 (configuration not stated)"
system_tested = "Amine oxidase [flavin-containing] B (Homo sapiens, UniProt P27338)"
reported = "16.1 µM"

[[record]]
compound = "O=C(CN1CCCCC1)N1N=C(c2ccccc2)CC1c1ccccc1O (configuration not stated)"
system_tested = "Amine oxidase [flavin-containing] B (Homo sapiens, UniProt P27338)"
reported = "50.6 µM"

[[record]]
compound = "CC1=NN(C(=O)CN2CCCCC2)C(c2cc(Br)cc(Br)c2O)C1 (configuration not stated)"
system_tested = "Amine oxidase [flavin-containing] B (Homo sapiens, UniProt P27338)"
reported = "49.9 µM"

[[record]]
compound = "CC1=NN(C(=O)CN2CCOCC2)C(c2cc(Cl)ccc2O)C1 (configuration not stated)"
system_tested = "Amine oxidase [flavin-containing] B (Homo sapiens, UniProt P27338)"
reported = "41.8 µM"


Each compound below has a reported value. Please supply its IC50.
1. O=C(Cn1ccnc1)N1N=C(c2ccccc2)CC1c1ccccc1O (configuration not stated)
2. O=C(CN1CCCCC1)N1N=C(c2ccc(F)cc2)CC1c1ccccc1O (configuration not stated)
3. O=C(CN1CCCCC1)N1N=C(c2ccc(Cl)cc2)CC1c1ccccc1O (configuration not stated)
4. Cc1ccc(C2=NN(C(=O)Cn3ccnc3)C(c3ccccc3O)C2)cc1 (configuration not stated)

*A*
1: 59.4 µM; 2: 47.4 µM; 3: 40.1 µM; 4: 41.3 µM
